Tested on: P. falciparum stage V gametocytes
Test: microbe, parasite or virus in culture
Parameters: BacTiter-Glo ATP luminescence viability of purified stage V gametocytes in 384-well plates, per cent inhibition versus DMSO
Settings: Plasmodium falciparum, 48 h, read-out: % Inhibition
reported_metric: inhibition at 5 µM (%)
The response must be a number in % with no trailing unit.

Asked: Print P. falciparum stage V gametocytes inhibition at 5 µM for COc1cccc2c(N/N=C/c3ccccc3[N+](=O)[O-])ccnc12 [TCMDC-142141] .
Given back: 90.8

Asked: Print P. falciparum stage V gametocytes inhibition at 5 µM for Nc1cc(/C=C/c2ccc([N+](=O)[O-])s2)nc2ccccc12 [TCMDC-142296] .
Given back: 111

Asked: Print P. falciparum stage V gametocytes inhibition at 5 µM for COc1cccc2c(Nc3ccccc3C)nc(Nc3ccccc3C)nc12 [TCMDC-142321] .
Given back: 28.2

---

System: P. falciparum stage V gametocytes
Experiment: microbe, parasite or virus in culture
Parameters: BacTiter-Glo ATP luminescence viability of purified stage V gametocytes in 384-well plates, per cent inhibition versus DMSO
Conditions: Plasmodium falciparum, 48 h, read-out: % Inhibition
reported_metric: inhibition at 5 µM (%)
The response must be a number in % with no trailing unit.

Asked: Note inhibition at 5 µM for the compound shown: Cc1ccccc1Nc1nc(Nc2ccccc2)c2ccccc2n1
Given back: 28.6

Asked: Note inhibition at 5 µM for the compound shown: Fc1ccc(C=NNc2ccnc3ccc(C(F)(F)F)cc23)cc1
Given back: -15.6

Asked: Note inhibition at 5 µM for the compound shown: Nc1c2c(nc3ccc(C(=O)Nc4ccc(Br)cc4)cc13)CCCC2
Given back: 62.2

Asked: Note inhibition at 5 µM for the compound shown: CCNc1c2ccc(Cl)cc2nc2ccc(OC)cc12
Given back: -21.5

Asked: Note inhibition at 5 µM for the compound shown: COc1cccc2c(NN=Cc3cccc(Cl)c3)cc(C)nc12
Given back: 27.1

Asked: Note inhibition at 5 µM for the compound shown: [O-][s+]1nc(NCCCN(Cc2cccs2)c2ccccn2)c(NCc2ccccc2)n1 (centres unmarked)
Given back: 5.1

Asked: Note inhibition at 5 µM for the compound shown: Cc1cc(NN=Cc2ccc(Cl)cc2)c2cc(F)ccc2n1
Given back: 56.5

Asked: Note inhibition at 5 µM for the compound shown: O=[N+]([O-])c1cccc(/C=N/Nc2ccnc3ccc(C(F)(F)F)cc23)c1
Given back: 7.31

---

Test system: P. falciparum stage V gametocytes
Assay: Gametocytocidal ATP bioluminescence assay (single point 5 μM and 1 μM, dose-response)
Type: cell-based, Plasmodium falciparum
Settings: Plasmodium falciparum; P. falciparum gametocytes; average; read-out: IC50 Pf Gametocytes average, IC50 (µM) average
So I've got a bunch of compounds here, and I need their IC50 values.
The response must be a number in µM with no trailing unit.

Asked: Note IC50 for the compound shown: Cc1ccc(-n2c(C)nc3c(Nc4ccc(-c5ccncc5)cc4)ncnc32)c(C)c1
Given back: 0.53

Asked: Note IC50 for the compound shown: COc1cc2nc(N3CCN(c4nc(N)c5cc(OC)c(OC)cc5n4)CC3)nc(N)c2cc1OC
Given back: 0.26

Asked: Note IC50 for the compound shown: CC(C)CNCc1cccc(-c2ccc(CN(CCCN3CCN(C)CC3)C(=O)CCC3CCCC3)cc2)c1
Given back: 0.7

Asked: Note IC50 for the compound shown: COc1cc2nc(N3CCC(CCCC4CCNCC4)CC3)nc(NCc3ccccn3)c2cc1OC
Given back: 0.4

Asked: Note IC50 for the compound shown: CC(C)(C)c1ccc(CN2CCC(CNC(=O)c3cc(-c4ccccc4F)cs3)C2)cc1 (stereo not drawn)
Given back: 0.34

Asked: Note IC50 for the compound shown: CC(C)(C)c1ccc(CN2CCC(CNC(=O)c3cc(-c4cccc(Cl)c4)cs3)C2)cc1 (stereo not drawn)
Given back: 0.61

Asked: Note IC50 for the compound shown: CCn1ncc2c(NC3CCOCC3)c(CNC(=O)c3ccnn3C)c(C)nc21
Given back: 1.64

Asked: Note IC50 for the compound shown: N=C(NCCCc1ccccc1)c1cccc(C(=N)NCCCc2ccccc2)n1
Given back: 0.31

Asked: Note IC50 for the compound shown: CCCCN(CCCC)C(=NC(=N)NCc1ccc(Cl)c(Cl)c1)NCCCCCCNC(=NC(=N)NCc1ccc(Cl)c(Cl)c1)N(CCCC)CCCC
Given back: 0.62

Asked: Note IC50 for the compound shown: O=C(c1ccc([N+](=O)[O-])o1)N1CCC(Cc2ccc(C(F)(F)F)cc2)CC1
Given back: 0.26

Asked: Note IC50 for the compound shown: C/C=C/C=C/C1=NCCc2cc(OCCC)ccc21
Given back: 0.75

Asked: Note IC50 for the compound shown: COc1cccc(Nc2c(C(N)=O)cnc3ccc(-c4ccc([S+](C)[O-])cc4)cc23)c1 (stereo not drawn)
Given back: 1.43
